TARGET ENTITY: K-Ras G12C (Homo sapiens, UniProt P01116, G12C)
Construct: This protein contained 188 amino acids in total, including an N-terminal 6-Histidine tag; made in house; host or cells: E. coli BL21
PROTOCOL DESCRIPTION: CAF assay (% CAF; method in Example 7, not in this part)
Assay type: binding
EXPERIMENTAL PARAMETERS: 10 uM compound, 1 h incubation
Decision: % CAF @ 10 uM, 1h >= 80% yields Satisfied, all other cases yield Not satisfied.

Example cases with answers are listed next.
Check the entry C=CC(=O)N1CCN(c2nc(=O)n3c4c(c(-c5ccc(F)cc5F)c(Cl)cc24)SC[C@H]3COCOC)[C@@H](C)C1 : does % CAF @ 10 uM, 1h equal or exceed 80%?
Not satisfied

Has C=CC(=O)N1CCN(c2nc(=O)n3c4c(c(-c5ccc(F)cc5)c(C(F)(F)F)cc24)SC[C@@H](OC)C3)[C@@H](C)C1 a recorded % CAF @ 10 uM, 1h greater than or equal to 80%?
Satisfied

Evaluate C=CC(=O)N1C2CC(=O)CC1CN(c1nc(=O)n3c4c(c(-c5ccc(F)cc5F)c(C(F)(F)F)cc14)SC[C@@H]3COC)C2 : % CAF @ 10 uM, 1h at minimum 80%?
Satisfied

# bool: % CAF @ 10 uM, 1h of C=CC(=O)N1CCN(c2nc(=O)n3c4c(c(-c5cc(F)c(F)cc5F)c(Cl)cc24)SC[C@H]3COCOC)[C@@H](C)C1 >= 80%
Not satisfied

Let us examine a further case.
// inclusive: % CAF @ 10 uM, 1h at least 80%? input: C=CC(=O)N1CCN(c2nc(=O)n3c4c(c(-c5ccc(F)cc5F)c(C(F)(F)F)cc24)S[C@@H](CN(C)C)C3)[C@@H](C)C1
Satisfied

* * *

TARGET ENTITY: Cys12 of the KRAS 4B G12C protein (Homo sapiens, UniProt P01116, G12C)
Construct: This protein contained 188 amino acids in total, including an N-terminal 6-Histidine tag; made in house; host or cells: E. coli BL21
PROTOCOL DESCRIPTION: In vitro covalent adduct formation (CAF) assay, LC-MS intact mass
Format: binding
EXPERIMENTAL PARAMETERS: 10 uM compound, 60 min
ENDPOINT: % CAF 10 uM @ 60 min (%)
Answers are plain numbers, in %.

Here are 8 compounds together with their reported answers.
# lookup: % CAF 10 uM @ 60 min of C=CC(=O)N1[C@H](C)CN(c2nc(=O)n3c4c(c(-c5ccc(F)c(Cl)c5)c(C(F)(F)F)cc24)SCC2(COC2)C3)C[C@@H]1C [Example 1353]
96.4

What % CAF 10 uM @ 60 min value was documented for this compound, C=CC(=O)N1C[C@H](C)N(c2nc(=O)n3c4c(c(-c5cc(O)c(F)cc5F)c(C(F)(F)F)cc24)SCC2(COC2)C3)C[C@H]1C [Example 1454] ?
92

Would you kindly share the measured % CAF 10 uM @ 60 min for C=CC(=O)N1C[C@H](C)N(c2nc(=O)n3c4c(c(-c5ccc(F)c(Cl)c5)c(C(F)(F)F)cc24)SC[C@@H]3CN2CCN(C3CC3)CC2)C[C@H]1C [Example 1387] ?
71

Which % CAF 10 uM @ 60 min is listed for C=CC(=O)N1[C@H](C)CN(c2nc(=O)n3c4c(c(-c5cc(Br)c(F)cc5F)c(C(F)(F)F)cc24)SCC2(COC2)C3)C[C@@H]1C [Example 1452] ?
97

Which % CAF 10 uM @ 60 min reading was recorded for the compound C=CC(=O)N1[C@H](C)CN(c2nc(=O)n3c4c(c(-c5ccc(F)cc5)c(C(F)(F)F)cc24)SC[C@@H](CO)C3)C[C@@H]1C [Example 1398] ?
44.2

# input compound: C=CC(=O)N1[C@H](C)CN(c2nc(=O)n3c4c(c(-c5c(F)cccc5F)c(C(F)(F)F)cc24)SC[C@@H]3COC)C[C@@H]1C [Example 1371] ; wanted: its % CAF 10 uM @ 60 min
60.6

Which % CAF 10 uM @ 60 min is reported for this compound? C=CC(=O)N1[C@H](C)CN(c2nc(=O)n3c4c(c(-c5cc(Cl)c(F)cc5F)c(C(F)(F)F)cc24)SC[C@@H]3CN2C[C@@H]3C[C@H]2CO3)C[C@@H]1C (atropisomer, axis not shown) [Example 1332]
87

For the compound C=CC(=O)N1[C@H](C)CN(c2nc(=O)n3c4c(c(-c5ccc(F)cc5F)c(C(F)(F)F)cc24)SC[C@@H]3CN2CCN(C3CC3)CC2)C[C@@H]1C (atropisomer, axis not shown) [Example 1347] , what % CAF 10 uM @ 60 min is on record?
89.7

Hi, could you look up % CAF 10 uM @ 60 min for each item in my list?
1. C=CC(=O)N1[C@H](C)CN(c2nc(=O)n3c4c(c(-c5cc(Br)c(F)cc5F)c(C(F)(F)F)cc24)SC[C@@H]3COC)C[C@@H]1C (atropisomer, axis not shown) [Example 1447]
2. C=CC(=O)N1CCN(c2nc(=O)n3c4c(c(-c5ccc(F)cc5F)c(C(F)(F)F)cc24)SC[C@@H]3CN2CCN(C3CC3)CC2)CC1 (atropisomer, axis not shown) [Example 1391]
3. C=CC(=O)N1[C@H](C)CN(c2nc(=O)n3c4c(c(-c5cc(Cl)c(F)cc5F)c(C(F)(F)F)cc24)SC[C@@H]3CN(C)C)C[C@@H]1C (atropisomer, axis not shown) [Example 1375]

1. 97
2. 95.9
3. 93.9

* * *

TARGET ENTITY: Cys12 of the KRAS 4B G12C protein (Homo sapiens, UniProt P01116, G12C)
Construct: This protein contained 188 amino acids in total, including an N-terminal 6-Histidine tag; made in house; host or cells: E. coli BL21
PROTOCOL DESCRIPTION: In vitro covalent adduct formation (CAF) assay, LC-MS intact mass
Assay type: binding
EXPERIMENTAL PARAMETERS: after 60 min
So I've got a bunch of compounds here, and I need their CAF (% binding after 60 min) values.
Numbers only, in %.

Take a look at these entries with their results.
Could you tell me which CAF (% binding after 60 min) is on file for C=CC(=O)N1CCN(c2nc(=O)n3c4c(c(-c5ccc(F)c(Cl)c5)c(C(F)(F)F)cc24)SC[C@H](OCOC)C3)CC1 ?
90

Item under review: C=CC(=O)N1[C@H](C)CN(c2nc(=O)n3c4c(c(-c5ccc(F)c(Cl)c5)c(C(F)(F)F)cc24)SC[C@@H](OCCN(C)C)C3)C[C@@H]1C . Reported CAF (% binding after 60 min)?
97

Data request, read-out CAF (% binding after 60 min), for C=CC(=O)N1[C@H](C)CN(c2nc(=O)n3c4c(c(-c5ccc(F)c(Cl)c5)c(C(F)(F)F)cc24)SC[C@H](OCOC)C3)C[C@@H]1C
95

Could you tell me which CAF (% binding after 60 min) is on file for C=CC(=O)N1CCN(c2nc(=O)n3c4c(c(-c5ccc(F)cc5F)c(C(F)(F)F)cc24)SC[C@@H](OCCOC)C3)CC1 ?
97

For C=CC(=O)N1[C@H](C)CN(c2nc(=O)n3c4c(c(-c5ccc(F)cc5)c(C(F)(F)F)cc24)SC[C@@H](OCOC)C3)C[C@@H]1C , what is its reported CAF (% binding after 60 min)?
96

Param item = C=CC(=O)N1CCN(c2nc(=O)n3c4c(c(-c5ccc(F)cc5)c(C(F)(F)F)cc24)SC[C@H](OCOC)C3)CC1 ; retrieve measured CAF (% binding after 60 min).
97

Which CAF (% binding after 60 min) value is on record for C=CC(=O)N1CCN(c2nc(=O)n3c4c(c(-c5cc(Cl)c(F)cc5F)c(C(F)(F)F)cc24)SC[C@H](OCOC)C3)CC1 ?
92

Return reported CAF (% binding after 60 min); argument: C=CC(=O)N1CCN(c2nc(=O)n3c4c(c(-c5ccc(F)cc5)c(C(F)(F)F)cc24)SC[C@@H](OCCOC)C3)CC1
98

Any idea what its CAF (% binding after 60 min) is? The compound is C=CC(=O)N1CCN(c2nc(=O)n3c4c(c(-c5ccc(F)c(Cl)c5)c(C(F)(F)F)cc24)SC[C@H](OC)C3)CC1 [Example 1041]
97

If you can, please state the reported CAF (% binding after 60 min) value of C=CC(=O)N1[C@H](C)CN(c2nc(=O)n3c4c(c(-c5ccc(F)cc5)c(Cl)cc24)SC[C@@H](OC)C3)C[C@@H]1C .
96

Could I get CAF (% binding after 60 min) for every one of these entries?
1. C=CC(=O)N1[C@H](C)CN(c2nc(=O)n3c4c(c(-c5cc(Cl)c(F)cc5F)c(C(F)(F)F)cc24)SC[C@@H](OCOC)C3)C[C@@H]1C
2. C=CC(=O)N1[C@H](C)CN(c2nc(=O)n3c4c(c(-c5ccc(F)cc5F)c(C(F)(F)F)cc24)SC[C@H](OCCOC)C3)C[C@@H]1C

1. 84
2. 95
